test: inhibitors of TWEAK-Fn14 signaling, primary screen, luciferase reporter cells, uHTS (AID 1159606); conditions: TWEAK-stimulated Fn14 reporter cells, luciferase luminescence, 8 h; at 10 µM; active compounds read high
The campaign covered roughly 360,000 compounds. About 7,300 (2%) were called active. The entries come from a sample that favours actives as a whole.
Class condition met: inhibition at least 30%. Class condition not met: inhibition below 30%.

[[record]]
item_smiles = "Cc1cc(C)cc(NC(=S)NCCc2c[nH]c3ccccc23)c1"
category_label = "condition not met"

[[record]]
item_smiles = "CCCCN(C(=O)C1=NN(c2cc(C)ccc2C)C(=O)CC1)c1c(N)n(CCC)c(=O)[nH]c1=O"
category_label = "condition not met"

[[record]]
item_smiles = "Cc1cccc(NC(=S)NCc2ccc3[nH]c4c(c3c2)CCCC4)c1"
category_label = "condition met"

[[record]]
item_smiles = "COc1ccc(OC)c(C(=O)c2coc3ccc(O)c(CN4CCOCC4)c23)c1"
category_label = "condition not met"

[[record]]
item_smiles = "COc1ccc(OC)c(C(=O)c2coc3ccc(OC)cc23)c1"
category_label = "condition met"

